Test: CREB reporter modulators under forskolin, primary screen, cell-based, PC12, CRE-LacZ reporter, forskolin-stimulated (AID 1146);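 note: PC12 cells with 6xCRE LacZ reporter stimulated by forskolin 10 µM; beta-galactosidase reporter signal reflecting CREB driven transcription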
Conditions: luminescence, 4.5 h, higher = more signal, called active from +8 up or from −8 down
Recorded z-score by entry
attribute-measured: z-score

compound: COC(=O)[C@H](C)NC(=O)CCC1CC(OC(=O)NCCc2ccc(F)cc2)CC2(CCCC(COC(=O)NCC(c3ccccc3)c3ccccc3)O2)O1 (stereo partly drawn)
value: -0.187
--
compound: CS(=O)(=O)CCOC(=O)C1=CC(CCCO)=CC(c2cccs2)N(Cc2cccc(OC(F)(F)F)c2)C=C1C(=O)OCCS(C)(=O)=O (stereo not drawn)
value: 0.706
--
compound: O=C1[C@H]2[C@H]3[C@H](O)[C@H](O)CC(=NO[C@@H]4O[C@H](CO)[C@@H](O)[C@H](O)[C@H]4O)[C@H]3CC[C@H]2C(=O)N1C1CCCCC1
value: 0.234
